Reference source for all entries: paper PMC12002259

Molecular target: T1, RAD52 full length (human, UniProt P43351 1-418)
T1 sequence: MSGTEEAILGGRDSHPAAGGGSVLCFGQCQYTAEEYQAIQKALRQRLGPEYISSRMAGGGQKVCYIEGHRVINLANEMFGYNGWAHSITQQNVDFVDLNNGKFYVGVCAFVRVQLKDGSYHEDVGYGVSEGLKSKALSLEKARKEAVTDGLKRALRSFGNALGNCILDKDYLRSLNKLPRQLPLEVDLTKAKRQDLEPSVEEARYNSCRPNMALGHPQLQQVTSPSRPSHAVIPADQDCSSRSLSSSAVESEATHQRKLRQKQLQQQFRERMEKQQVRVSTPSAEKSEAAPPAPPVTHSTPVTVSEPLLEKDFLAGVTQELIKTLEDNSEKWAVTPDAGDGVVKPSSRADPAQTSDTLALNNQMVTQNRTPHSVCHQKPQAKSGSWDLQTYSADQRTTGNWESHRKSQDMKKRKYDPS
Assay: EMSA; 25 C; Hill fixed at 1; EMSA: 25 mM Tris-acetate, 2 mM Mg(OAc)2, 1 mM DTT, pH 7.5, 10 nM ssDNA, 25 C 10 min or 37 C 5 min; mass photometry: 20 mM Tris-HCl, 50 mM NaCl, pH 7.5
Conditions: protein: recombinant; tags: His-tag (pET-15b)
measurement type: pKd
pKd is a log-scale quantity: -log10 of the concentration expressed in molar.

Give recorded pKd. 70 nt (ssDNA) DNA: TTTAATAATTTACTTTATTTTCTATGTCTATTCATTTACTTATTGTGTATTATCCTTATACTTACTTAC 7.28
